- Tested on: 922993-354-T-J3-PDC complex spheroids, viability
- test_description: Anticancer human tumor 922993-354-T-J3-PDC patient-derived endometrial carcinoma cell line growth inhibition [GQUAD]
- condition_info: second compound 10 µM; first compound 0.0999 µM; stronger effect = lower value
The following molecules are shown together with reported viability, T/C values.

# molecule, viability, T/C / %
data = [
    ("CC[C@@]1(O)C(=O)OCc2c1cc1n(c2=O)Cc2cc3c(CN(C)C)c(O)ccc3nc2-1 + Cc1cnc(CNC(=O)c2c(=O)c3ccc(N4CCCN(C)CC4)nc3n3c2sc2ccccc23)cn1", 46.2),
    ("Cn1ncnc1[C@H]1c2n[nH]c(=O)c3cc(F)cc(c23)N[C@@H]1c1ccc(F)cc1 + Cc1cnc(CNC(=O)c2c(=O)c3ccc(N4CCCN(C)CC4)nc3n3c2sc2ccccc23)cn1", 49.3),
    ("Cn1ncnc1[C@H]1c2n[nH]c(=O)c3cc(F)cc(c23)N[C@@H]1c1ccc(F)cc1 + CN(C)c1ccc(Nc2c3ccc(NC(=O)CCN4CCCC4)cc3nc3cc(NC(=O)CCN4CCCC4)ccc23)cc1", 98.5),
    ("Cc1[nH]c2ccccc2c1CCNCc1ccc(/C=C/C(=O)NO)cc1 + CN(C)c1ccc(Nc2c3ccc(NC(=O)CCN4CCCC4)cc3nc3cc(NC(=O)CCN4CCCC4)ccc23)cc1", 110),
    ("CCc1c2c(nc3ccc(O)cc13)-c1cc3c(c(=O)n1C2)COC(=O)[C@]3(O)CC + CN(C)c1ccc(Nc2c3ccc(NC(=O)CCN4CCCC4)cc3nc3cc(NC(=O)CCN4CCCC4)ccc23)cc1", 17.4),
    ("CCc1c2c(nc3ccc(O)cc13)-c1cc3c(c(=O)n1C2)COC(=O)[C@]3(O)CC + Cc1cnc(CNC(=O)c2c(=O)c3ccc(N4CCCN(C)CC4)nc3n3c2sc2ccccc23)cn1", 45),
    ("Cc1[nH]c2ccccc2c1CCNCc1ccc(/C=C/C(=O)NO)cc1 + Cc1cnc(CNC(=O)c2c(=O)c3ccc(N4CCCN(C)CC4)nc3n3c2sc2ccccc23)cn1", 38.9),
    ("Cc1[nH]c2ccccc2c1CCNCc1ccc(/C=C/C(=O)NO)cc1 + Cc1[nH]c2ccc(F)cc2c1-c1nc2c3cccnc3c3ncccc3c2[nH]1", 112),
    ("CC[C@@]1(O)C(=O)OCc2c1cc1n(c2=O)Cc2cc3c(CN(C)C)c(O)ccc3nc2-1 + Cc1[nH]c2ccc(F)cc2c1-c1nc2c3cccnc3c3ncccc3c2[nH]1", 74.6),
    ("CCc1c2c(nc3ccc(O)cc13)-c1cc3c(c(=O)n1C2)COC(=O)[C@]3(O)CC + Cc1[nH]c2ccc(F)cc2c1-c1nc2c3cccnc3c3ncccc3c2[nH]1", 22.9),
    ("Cn1ncnc1[C@H]1c2n[nH]c(=O)c3cc(F)cc(c23)N[C@@H]1c1ccc(F)cc1 + Cc1[nH]c2ccc(F)cc2c1-c1nc2c3cccnc3c3ncccc3c2[nH]1", 75),
    ("CC[C@@]1(O)C(=O)OCc2c1cc1n(c2=O)Cc2cc3c(CN(C)C)c(O)ccc3nc2-1 + CN(C)c1ccc(Nc2c3ccc(NC(=O)CCN4CCCC4)cc3nc3cc(NC(=O)CCN4CCCC4)ccc23)cc1", 115),
]

* * *

- Tested on: 922993-354-T-J3-PDC complex spheroids, viability
- test_description: Anticancer human tumor 922993-354-T-J3-PDC cell line growth inhibition [GQUAD];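 further: spheroids exposed to compounds for seven days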;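 on viability, T/C: 100% = DMSO vehicle control viability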
- condition_info: second compound 0.316 µM; first compound 0.316 µM; stronger effect = lower value

# molecule, viability, T/C [%]
data = [
    ("COc1ncnc(C2CC2)c1-c1ncc2cnn(Cc3ccc(-c4nc(C(F)(F)F)cn4C(C)C)cc3)c2n1 + Cc1cnc(CNC(=O)c2c(=O)c3ccc(N4CCCN(C)CC4)nc3n3c2sc2ccccc23)cn1", 41.8),
    ("Cn1ncnc1[C@H]1c2n[nH]c(=O)c3cc(F)cc(c23)N[C@@H]1c1ccc(F)cc1 + CN(C)c1ccc(Nc2c3ccc(NC(=O)CCN4CCCC4)cc3nc3cc(NC(=O)CCN4CCCC4)ccc23)cc1", 34.7),
    ("O=c1[nH]cc(F)c(=O)[nH]1 + Cc1[nH]c2ccc(F)cc2c1-c1nc2c3cccnc3c3ncccc3c2[nH]1", 103),
]

* * *

Overview of reported viability, T/C across a group of compounds:
- System: 922993-354-T-J3-PDC complex spheroids, viability
- test_description: Anticancer human tumor 922993-354-T-J3-PDC cell line growth inhibition [GQUAD];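 further: spheroids exposed to compounds for seven days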;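 on viability, T/C: 100% = DMSO vehicle control viability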
- condition_info: second compound 0.1 µM; first compound 10 µM; stronger effect = lower value
- Description: DNA G-quadruplex Stabilizer Agents in Combinations in Complex Spheroids A high-throughput screen of multi-cell type tumor spheroids was designed to identify active combinations of DNA G-quadruplex stabilizer agents and targeted small molecules. […] Compounds. […] If the clinical Cmax for an agent had not been determined, the highest concentration tested was 10 microM. […]

# compound, viability, T/C (%)
rows = [
    ("C#Cc1c(F)ccc2cc(O)cc(-c3ncc4c(N5CC6CCC(C5)N6)nc(OCC56CCCN5CC(F)C6)nc4c3F)c12 (stereo not given) + Cc1cnc(CNC(=O)c2c(=O)c3ccc(N4CCCN(C)CC4)nc3n3c2sc2ccccc23)cn1", 61.1),
    ("Cc1cccc(N(C)C(=O)C2C(O)CCN2c2nc(C)cc(C(F)(F)F)c2C#N)c1 (stereo not given) + CN(C)c1ccc(Nc2c3ccc(NC(=O)CCN4CCCC4)cc3nc3cc(NC(=O)CCN4CCCC4)ccc23)cc1", 67.6),
    ("COc1ncnc(C2CC2)c1-c1ncc2cnn(Cc3ccc(-c4nc(C(F)(F)F)cn4C(C)C)cc3)c2n1 + Cc1cnc(CNC(=O)c2c(=O)c3ccc(N4CCCN(C)CC4)nc3n3c2sc2ccccc23)cn1", 70.4),
    ("CCCS(=O)(=O)Nc1ccc(F)c(C(=O)c2c[nH]c3ncc(-c4ccc(Cl)cc4)cc23)c1F + Cc1cnc(CNC(=O)c2c(=O)c3ccc(N4CCCN(C)CC4)nc3n3c2sc2ccccc23)cn1", 40),
    ("COc1cccc2c1C(=O)c1c(O)c3c(c(O)c1C2=O)CC(O)(C(=O)CO)CC3OC1CC(N)C(O)C(C)O1 (stereo not given) + Cc1cnc(CNC(=O)c2c(=O)c3ccc(N4CCCN(C)CC4)nc3n3c2sc2ccccc23)cn1", 42),
]

* * *

- System: 922993-354-T-J3-PDC complex spheroids, viability
- test_description: Anticancer human tumor 922993-354-T-J3-PDC cell line growth inhibition [GQUAD];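 further: spheroids exposed to compounds for seven days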
- condition_info: curve of first compound; second compound 0.1 µM
endpoint: IC50

# compound, endpoint, result
rows = [
    ("COc1ccc([C@@H](O)c2cc(-c3ncnc4cc(N5CCOCC5)ccc34)c(F)cc2Cl)nn1 + Cc1cnc(CNC(=O)c2c(=O)c3ccc(N4CCCN(C)CC4)nc3n3c2sc2ccccc23)cn1", "IC50", "1.02 µM"),
    ("CCCS(=O)(=O)Nc1ccc(F)c(C(=O)c2c[nH]c3ncc(-c4ccc(Cl)cc4)cc23)c1F + Cc1[nH]c2ccc(F)cc2c1-c1nc2c3cccnc3c3ncccc3c2[nH]1", "IC50", "> 10 µM"),
    ("COc1ncnc(C2CC2)c1-c1ncc2cnn(Cc3ccc(-c4nc(C(F)(F)F)cn4C(C)C)cc3)c2n1 + CN(C)c1ccc(Nc2c3ccc(NC(=O)CCN4CCCC4)cc3nc3cc(NC(=O)CCN4CCCC4)ccc23)cc1", "IC50", "> 10 µM"),
    ("O=C(c1cc(Cc2n[nH]c(=O)c3ccccc23)ccc1F)N1CCN(C(=O)C2CC2)CC1 + CN(C)c1ccc(Nc2c3ccc(NC(=O)CCN4CCCC4)cc3nc3cc(NC(=O)CCN4CCCC4)ccc23)cc1", "IC50", "> 10 µM"),
    ("CC1COCCN1c1cc(-c2ccnn2C)c2ccnc(-c3ccn[nH]3)c2n1 (stereo not given) + Cc1[nH]c2ccc(F)cc2c1-c1nc2c3cccnc3c3ncccc3c2[nH]1", "IC50", "0.234 µM"),
    ("COc1cc(C2c3cc4c(cc3C(OC3OC5COC(C)OC5C(O)C3O)C3COC(=O)C23)OCO4)cc(OC)c1O (stereo not given) + Cc1[nH]c2ccc(F)cc2c1-c1nc2c3cccnc3c3ncccc3c2[nH]1", "IC50", "> 10 µM"),
    ("CC(C)(O)C1CCC(Nc2ccc3ncc(-c4cccc(C(F)(F)F)c4)n3n2)CC1 (stereo not given) + Cc1[nH]c2ccc(F)cc2c1-c1nc2c3cccnc3c3ncccc3c2[nH]1", "IC50", "> 10 µM"),
    ("Cn1ncnc1[C@H]1c2n[nH]c(=O)c3cc(F)cc(c23)N[C@@H]1c1ccc(F)cc1 + Cc1cnc(CNC(=O)c2c(=O)c3ccc(N4CCCN(C)CC4)nc3n3c2sc2ccccc23)cn1", "IC50", "0.0717 µM"),
    ("CC[C@@]1(O)C(=O)OCc2c1cc1n(c2=O)Cc2cc3c(CN(C)C)c(O)ccc3nc2-1 + CN(C)c1ccc(Nc2c3ccc(NC(=O)CCN4CCCC4)cc3nc3cc(NC(=O)CCN4CCCC4)ccc23)cc1", "IC50", "> 0.316 µM"),
    ("CC1COCCN1c1cc(-c2ccnn2C)c2ccnc(-c3ccn[nH]3)c2n1 (stereo not given) + Cc1cnc(CNC(=O)c2c(=O)c3ccc(N4CCCN(C)CC4)nc3n3c2sc2ccccc23)cn1", "IC50", "< 0.0316 µM"),
    ("CC(=O)O[C@H]1C(=O)[C@@]2(C)[C@H]([C@H](OC(=O)c3ccccc3)[C@]3(O)C[C@H](OC(=O)[C@H](O)[C@@H](NC(=O)c4ccccc4)c4ccccc4)C(C)=C1C3(C)C)[C@]1(OC(C)=O)CO[C@@H]1C[C@@H]2O + Cc1cnc(CNC(=O)c2c(=O)c3ccc(N4CCCN(C)CC4)nc3n3c2sc2ccccc23)cn1", "IC50", "9.75 µM"),
    ("CCc1c2c(nc3ccc(O)cc13)-c1cc3c(c(=O)n1C2)COC(=O)[C@]3(O)CC + CN(C)c1ccc(Nc2c3ccc(NC(=O)CCN4CCCC4)cc3nc3cc(NC(=O)CCN4CCCC4)ccc23)cc1", "IC50", "0.00699 µM"),
    ("Nc1ccn(C2OC(CO)C(O)C2(F)F)c(=O)n1 (stereo not given) + CN(C)c1ccc(Nc2c3ccc(NC(=O)CCN4CCCC4)cc3nc3cc(NC(=O)CCN4CCCC4)ccc23)cc1", "IC50", "< 0.0316 µM"),
    ("C=CCn1c(=O)c2cnc(Nc3ccc(N4CCN(C)CC4)cc3)nc2n1-c1cccc(C(C)(C)O)n1 + CN(C)c1ccc(Nc2c3ccc(NC(=O)CCN4CCCC4)cc3nc3cc(NC(=O)CCN4CCCC4)ccc23)cc1", "IC50", "4.2 µM"),
    ("Cc1cccc(N(C)C(=O)C2C(O)CCN2c2nc(C)cc(C(F)(F)F)c2C#N)c1 (stereo not given) + Cc1cnc(CNC(=O)c2c(=O)c3ccc(N4CCCN(C)CC4)nc3n3c2sc2ccccc23)cn1", "IC50", "4.16 µM"),
    ("COc1ccc([C@@H](O)c2cc(-c3ncnc4cc(N5CCOCC5)ccc34)c(F)cc2Cl)nn1 + Cc1[nH]c2ccc(F)cc2c1-c1nc2c3cccnc3c3ncccc3c2[nH]1", "IC50", "> 10 µM"),
    ("COc1ncnc(C2CC2)c1-c1ncc2cnn(Cc3ccc(-c4nc(C(F)(F)F)cn4C(C)C)cc3)c2n1 + Cc1[nH]c2ccc(F)cc2c1-c1nc2c3cccnc3c3ncccc3c2[nH]1", "IC50", "> 10 µM"),
    ("COc1ccc([C@@H](O)c2cc(-c3ncnc4cc(N5CCOCC5)ccc34)c(F)cc2Cl)nn1 + CN(C)c1ccc(Nc2c3ccc(NC(=O)CCN4CCCC4)cc3nc3cc(NC(=O)CCN4CCCC4)ccc23)cc1", "IC50", "> 10 µM"),
    ("Nc1ccn(C2OC(CO)C(O)C2(F)F)c(=O)n1 (stereo not given) + Cc1cnc(CNC(=O)c2c(=O)c3ccc(N4CCCN(C)CC4)nc3n3c2sc2ccccc23)cn1", "IC50", "< 0.0316 µM"),
    ("CC(=O)O[C@H]1C(=O)[C@@]2(C)[C@H]([C@H](OC(=O)c3ccccc3)[C@]3(O)C[C@H](OC(=O)[C@H](O)[C@@H](NC(=O)c4ccccc4)c4ccccc4)C(C)=C1C3(C)C)[C@]1(OC(C)=O)CO[C@@H]1C[C@@H]2O + Cc1[nH]c2ccc(F)cc2c1-c1nc2c3cccnc3c3ncccc3c2[nH]1", "IC50", "> 10 µM"),
]
